Cited source: the Immune Epitope Database (IEDB)

Listed next: entries and their corresponding IC50.
Target: HLA-B*44:03
Assay: IEDB peptide-MHC binding, purified MHC/competitive/radioactivity; bounds were set here for any values at or beyond the usual limits of such assays
Conditions: source organism: Bordetella pertussis
Number only, in nM; omit the unit.

* AEIAFYPKE | 480
* TEAQGVQVR | 19900
* RETFCITTI | 214

IC50 lookup needed for "AQVTVAGRY" , thanks. 3250

---

Target: HLA-B*53:01
Test: IEDB peptide-MHC binding, purified MHC/competitive/radioactivity; bounds were set here for any values at or beyond the usual limits of such assays
Details: source organism: Bordetella pertussis
Measure: pIC50
Note on pIC50: it is the negative log10 of concentration, concentration in mol/L.

Reference set, count: 2
- FPTRTTAPG: 6.05
- HANHYGTRI: 4.28

Then there is this sequence:
Field request: pIC50 | item: "TAPVTSPAW" 5.36

---

Target: HLA-B*07:02
Experiment: IEDB peptide-MHC binding, purified MHC/competitive/radioactivity; bounds were set here for any values at or beyond the usual limits of such assays
Settings: source organism: Bordetella pertussis
Measure: pIC50
The meaning of pIC50 here: minus log10 of the concentration in molar units.

* RPSVNGGRI | 6.46

Please look up its pIC50: "MPKAPELDL" 4.68

---

Molecular target: HLA-B*57:01
Experiment: IEDB peptide-MHC binding, purified MHC/competitive/radioactivity; bounds were set here for any values at or beyond the usual limits of such assays
Conditions: source organism: Bordetella pertussis
Measure: IC50 (µM)
# output: bare number, implied unit µM

- RSGARATSL: 21.9
- AARVAGDNY: 32.3

Reported IC50, sequence "KATVTTVQV" : ____ 35.2

// query IC50 value for entry "RARRALRQD" 13.5

Fill in the blank: the reported IC50 of "RRFTHADGW" is ____. 55.9

---

Measured pIC50 by item
Molecular target: HLA-A*02:01
Assay: IEDB peptide-MHC binding, purified MHC/competitive/radioactivity; bounds were set here for any values at or beyond the usual limits of such assays
Details: source organism: Bordetella pertussis
// scale note: pIC50 = -log10(conc_M); give the bare number

- TLSSAHGNV: 4.31
- VKLGGVYEA: 5.02
- IIKDAPPGA: 4.81

Let's switch to this sequence now.
GET /values?readout=pIC50&item= "IIQEFAADL" 5.38

---

Target: HLA-B*35:01
Experiment: IEDB peptide-MHC binding, purified MHC/competitive/radioactivity; bounds were set here for any values at or beyond the usual limits of such assays
Details: source organism: Bordetella pertussis
Measure: IC50 (µM)
Field format: number, assumed µM, no unit text.

Sample answers from the record:
• LAGSGLFRM = 0.767
• MAPVMGACM = 5
• ILAGALATY = 4.29

Consider the record given below.
Reported IC50, sequence "GEAMVLVYY" : ____ 36.4
